# assay.target: Transporter (Rattus norvegicus)
# Sequence (Q63380 whole entry): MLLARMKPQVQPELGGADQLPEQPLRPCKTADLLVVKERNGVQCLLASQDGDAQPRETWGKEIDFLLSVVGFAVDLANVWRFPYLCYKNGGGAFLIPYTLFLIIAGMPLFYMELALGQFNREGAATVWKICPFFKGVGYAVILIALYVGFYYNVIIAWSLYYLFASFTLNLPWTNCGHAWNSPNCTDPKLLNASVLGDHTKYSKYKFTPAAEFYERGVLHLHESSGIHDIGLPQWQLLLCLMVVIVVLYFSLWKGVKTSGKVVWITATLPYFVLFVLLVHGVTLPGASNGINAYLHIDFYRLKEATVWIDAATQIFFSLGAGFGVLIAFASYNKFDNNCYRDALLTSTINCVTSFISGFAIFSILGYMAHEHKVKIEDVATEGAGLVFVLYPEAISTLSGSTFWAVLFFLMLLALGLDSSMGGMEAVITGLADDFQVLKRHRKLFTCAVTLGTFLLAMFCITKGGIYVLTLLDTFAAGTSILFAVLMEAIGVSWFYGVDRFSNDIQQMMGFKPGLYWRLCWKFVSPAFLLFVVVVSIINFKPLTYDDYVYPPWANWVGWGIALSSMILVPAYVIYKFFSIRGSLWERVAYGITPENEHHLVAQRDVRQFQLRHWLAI
# procedure.summary: Inhibition of NET-mediated norepinephrine uptake in rat brain synaptosomes

>  <compound>
c1ccc(C2OC3(CCNCC3)c3ccccc32)cc1 (stereo unspecified)

>  <IC50 / nM>
10

$$$$

====

# Tested on: Mus musculus
# procedure.summary: Antidepressant activity in ip dosed CD1 mouse assessed as inhibition of tetrabenazine methanesulfonate-induced reserpine like behavior administered 30 mins before tetrabenazine methanesulfonate challenge measured after 30 mins
# Type: functional
Parameter: ED50. Scope: all listed entries.

>  <compound>
Br.CN1CC=C(c2cccc(Cc3ccccc3)c2)CC1

>  <unit.label>
mg/kg

>  <modifier.sign>
>

>  <ED50>
20

$$$$
>  <compound>
Br.Fc1ccc(Cc2ccccc2C2CCNCC2)cc1

>  <unit.label>
mg/kg

>  <modifier.sign>
=

>  <ED50>
1.5

$$$$
>  <compound>
CN(C)CCC=C1c2ccccc2CCc2ccccc21 [AMITRIPTYLINE]

>  <unit.label>
mg/kg

>  <modifier.sign>
=

>  <ED50>
1.9

$$$$
>  <compound>
COc1ccc(Cc2ccccc2C2(O)CCN(C)CC2)cc1

>  <unit.label>
mg/kg

>  <modifier.sign>
>

>  <ED50>
20

$$$$
>  <compound>
CC(=O)OC1(c2ccccc2Cc2ccccc2)CCN(C)CC1.Cl

>  <unit.label>
mg/kg

>  <modifier.sign>
>

>  <ED50>
20

$$$$
>  <compound>
Cl.c1ccc(COC2(c3ccccc3)CCNCC2)cc1

>  <unit.label>
mg/kg

>  <modifier.sign>
=

>  <ED50>
10.1

$$$$
>  <compound>
CNCCCN1c2ccccc2CCc2ccccc21 [DESIPRAMINE]

>  <unit.label>
mg/kg

>  <modifier.sign>
=

>  <ED50>
0.8

$$$$
>  <compound>
OC1(c2ccccc2Cc2ccccc2)CCN(CCc2ccccc2)CC1

>  <unit.label>
mg/kg

>  <modifier.sign>
>

>  <ED50>
20

$$$$
>  <compound>
Br.CN1CC=C(c2ccc(Cc3ccccc3)cc2)CC1

>  <unit.label>
mg/kg

>  <modifier.sign>
>

>  <ED50>
20

$$$$
>  <compound>
CN1CCC(O)(c2cccc(Cc3ccccc3)c2)CC1

>  <unit.label>
mg/kg

>  <modifier.sign>
>

>  <ED50>
20

$$$$
>  <compound>
Br.CN1CCC(c2ccccc2Cc2ccc(F)cc2)CC1

>  <unit.label>
mg/kg

>  <modifier.sign>
=

>  <ED50>
4.9

$$$$
>  <compound>
Cl.c1ccc(COC2(c3ccccc3)CCN(CC3CC3)CC2)cc1

>  <unit.label>
mg/kg

>  <modifier.sign>
=

>  <ED50>
6.3

$$$$

Data origin: ChEMBL document CHEMBL3244303
